Values compiled from paper PMC3756528.

- TARGET SYSTEM: RsTSPOW38C (Cereibacter sphaeroides, UniProt Q9RFC8, W38C)
- ASSAY PROCEDURE: Tryptophan fluorescence quenching binding assay, purified RsTSPOW38C mutant
- ASSAY SETUP: Kapp to RsTSPOW38C, estimated from half-maximal quenching
pKd: −log10 of the molar value.
MEASURED PROPERTY: pKd

test_smiles=CC(C)CCC[C@@H](C)[C@H]1CC[C@H]2[C@@H]3CC=C4C[C@@H](O)CC[C@]4(C)[C@H]3CC[C@]12C value_reported=~3.70

* * *

- TARGET SYSTEM: RsTSPO (Cereibacter sphaeroides, UniProt Q9RFC8)
- Sequence (Q9RFC8 1-158): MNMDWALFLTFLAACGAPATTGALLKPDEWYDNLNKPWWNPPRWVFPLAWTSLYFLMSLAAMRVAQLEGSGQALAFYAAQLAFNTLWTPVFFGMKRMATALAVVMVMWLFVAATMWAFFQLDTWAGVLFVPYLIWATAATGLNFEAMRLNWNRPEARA
pKd: −log10 of the molar value.
MEASURED PROPERTY: pKd

compound="CC(C)CCC[C@@H](C)[C@H]1CC[C@H]2[C@@H]3CC=C4C[C@@H](O)CC[C@]4(C)[C@H]3CC[C@]12C [Cholesterol]" measured_property=pKd value_reported=~4.10
